tested on: MALME-3M melanoma; experiment: NCI-60 one-dose screen, 48 h; details: 10 µM unless noted
This is part of a sample that, as a whole, favours compounds with a hit. Of some 83,000 tested, about 20% had one in any assay. Activity calls are given as the source filed them. How the source made its calls: active means growth percent below 10; inactive means the rest.
Field 'call' accepts active, inactive

CN1C(=C2C(=O)OC(C)(C)OC2=O)CCC1C(=O)NCc1ccc(Cl)cc1Cl (stereo not given) ... inactive
N#Cc1ccc(NC(=O)c2sc3nc4c(cc3c2N)C(=O)CCC4)cc1 ... inactive
COc1ccc(C(=O)C[C@]2(O)C(=O)Nc3c(Cl)ccc(Cl)c32)cc1 ... inactive
Cc1nc(NC(=O)COc2ccc(/C=C3\Cc4ccc(Cl)cc4C3=O)cc2)sc1C ... inactive
CCOC(=O)Nc1ccc(-c2nc(-c3cccc(OCCN4CCOCC4)c3)c(-c3ccnc(Br)c3)[nH]2)cc1 ... inactive

Please turn your attention to the following entry.
Q. Answer briefly: the call reported for O=C(CCc1nnc(-c2c(Cl)cccc2Cl)o1)c1nc2ccccc2[nH]1 in this assay.
A. inactive
